For each record, write down the corresponding cell survival rate higher than YK-410.
test system: 293T cells; assay: Cell survival rate assay (CCK-8); type: cell-based; conditions: difference vs YK-410
Answers are plain numbers, in %.

Here are 5 molecules together with their reported answers.
- molecule: "CCCCCCCCC(CCCCCCCC)C(=O)OCCCCCCN(CCO)CCN(CCO)CCCCCCOC(=O)C(CCCCCCCC)CCCCCCCC [YK-402]"
  result: 27.78
- molecule: "CCCCCCCCCCCOC(=O)CCCN(CCO)CCN(CCO)CCCCCC(=O)OC(CCCCCCCC)CCCCCCCC [YK-407]"
  result: 26.45
- molecule: "CCCCCCCCC(CCCCCCCC)OC(=O)CCCCCN(CCO)CCN(CCO)CCCCCC(=O)OC(CCCCCCCC)CCCCCCCC [YK-401]"
  result: 30.29
- molecule: "CCCCCCCCC(CCCCCCCC)COC(=O)CCCCCN(CCCO)CCCN(CCCO)CCCCCC(=O)OCC(CCCCCCCC)CCCCCCCC [YK-423]"
  result: 26.22
- molecule: "CCCCCCCCC(CCCCCCCC)OC(=O)CCCCCCCN(CCO)CCN(CCO)CCCCCCCC(=O)OC(CCCCCCCC)CCCCCCCC [YK-403]"
  result: 25.84

Kindly consider the entry below.
For CCCCCCCCC(CCCCCCCC)COC(=O)CCCCCN(CCCO)CCN(CCCO)CCCCCC(=O)OCC(CCCCCCCC)CCCCCCCC [YK-422] on 293T cells, measured cell survival rate higher than YK-410 was 25.56

* * *

Tested on: 293T cells
Assay: Cell survival rate assay (CCK-8)
Type: cell-based
Settings: difference vs YK-411
Protocol: Cell recovery and passage: 293T cells were recovered, cultured in a culture dish, and passaged to the required number of cells. Seeding plate: The cells in the culture dish were digested and counted. Cells were spread in a 96-well plate at 10,000 cells per well and in a 12-well plate at 150,000 cells per well. Cells were cultured overnight until the cells adhered to the wall. […]
For each record, write down the corresponding cell survival rate higher than YK-411.
Give bare numbers, in %.

Here are 3 molecules together with their reported answers.
- structure_smiles_string: "CCCCCCCCC(CCCCCCCC)C(=O)OCCCCCCN(CCO)CCN(CCO)CCCCCCOC(=O)C(CCCCCCCC)CCCCCCCC"
  test_target: "293T cells"
  endpoint_label: "cell survival rate higher than YK-411"
  unit_name: "%"
  result: 56.37
- structure_smiles_string: "CCCCCCCCC(CCCCCCCC)OC(=O)CCCCCCCN(CCO)CCN(CCO)CCCCCCCC(=O)OC(CCCCCCCC)CCCCCCCC"
  test_target: "293T cells"
  endpoint_label: "cell survival rate higher than YK-411"
  unit_name: "%"
  result: 54.43
- structure_smiles_string: "CCCCCCCCC(CCCCCCCC)OC(=O)CCCCCN(CCO)CCN(CCO)CCCCCC(=O)OC(CCCCCCCC)CCCCCCCC"
  test_target: "293T cells"
  endpoint_label: "cell survival rate higher than YK-411"
  unit_name: "%"
  result: 58.88

Each molecule below has a recorded value; state its cell survival rate higher than YK-411.
1. CCCCCCCCCCCOC(=O)CCCN(CCO)CCN(CCO)CCCCCC(=O)OC(CCCCCCCC)CCCCCCCC
2. CCCCCCCCC(CCCCCCCC)COC(=O)CCCCCN(CCCO)CCCN(CCCO)CCCCCC(=O)OCC(CCCCCCCC)CCCCCCCC
3. CCCCCCCCC(CCCCCCCC)COC(=O)CCCCCN(CCCO)CCN(CCCO)CCCCCC(=O)OCC(CCCCCCCC)CCCCCCCC

[55.04, 54.81, 54.15]

* * *

assay: Detection of encapsulation efficiency, drug loading concentration and total RNA concentration (RiboGreen); assay type: physicochemical; settings: difference vs YK-009
endpoint_label: encapsulation efficiency higher than YK-009 (%)
Give bare numbers, in %.

- structure_smiles_string: "CCCCCCCCC(CCCCCCCC)COC(=O)CCCCCN(CCCO)CCN(CCCO)CCCCCC(=O)OCC(CCCCCCCC)CCCCCCCC"
  result: 29.0

Each compound below has a recorded value; state its encapsulation efficiency higher than YK-009.
1. CCCCCCCCC(CCCCCCCC)COC(=O)CCCCCN(CCCO)CCCN(CCCO)CCCCCC(=O)OCC(CCCCCCCC)CCCCCCCC
2. CCCCCCCCC(CCCCCCCC)OC(=O)CCCCCCCN(CCO)CCN(CCO)CCCCCCCC(=O)OC(CCCCCCCC)CCCCCCCC
3. CCCCCCCCCCCOC(=O)CCCN(CCO)CCN(CCO)CCCCCC(=O)OC(CCCCCCCC)CCCCCCCC
4. CCCCCCCCC(CCCCCCCC)OC(=O)CCCCCN(CCO)CCN(CCO)CCCCCC(=O)OC(CCCCCCCC)CCCCCCCC
5. CCCCCCCCC(CCCCCCCC)C(=O)OCCCCCCN(CCO)CCN(CCO)CCCCCCOC(=O)C(CCCCCCCC)CCCCCCCC

26.3
24.4
21.8
20.2
27.6

* * *

system: 293T cells; assay: Cell survival rate assay (CCK-8); type: cell-based; details: difference vs YK-404
endpoint_label: cell survival rate higher than YK-404
Answer format reminder: number followed by unit.

- structure_smiles_string: "CCCCCCCCCCCOC(=O)CCCN(CCO)CCN(CCO)CCCCCC(=O)OC(CCCCCCCC)CCCCCCCC"
  result: "29.25%"
- structure_smiles_string: "CCCCCCCCC(CCCCCCCC)COC(=O)CCCCCN(CCCO)CCCN(CCCO)CCCCCC(=O)OCC(CCCCCCCC)CCCCCCCC"
  result: "29.02%"
- structure_smiles_string: "CCCCCCCCC(CCCCCCCC)OC(=O)CCCCCCCN(CCO)CCN(CCO)CCCCCCCC(=O)OC(CCCCCCCC)CCCCCCCC"
  result: "28.64%"
- structure_smiles_string: "CCCCCCCCC(CCCCCCCC)C(=O)OCCCCCCN(CCO)CCN(CCO)CCCCCCOC(=O)C(CCCCCCCC)CCCCCCCC"
  result: "30.58%"
- structure_smiles_string: "CCCCCCCCC(CCCCCCCC)OC(=O)CCCCCN(CCO)CCN(CCO)CCCCCC(=O)OC(CCCCCCCC)CCCCCCCC"
  result: "33.09%"

Kindly consider the entry below.
Form: compound = `CCCCCCCCC(CCCCCCCC)COC(=O)CCCCCN(CCCO)CCN(CCCO)CCCCCC(=O)OCC(CCCCCCCC)CCCCCCCC` ; cell survival rate higher than YK-404 = 28.36%

* * *

test system: 293T cells; experiment: Fluorescent detection of Fluc-mRNA (cell transfection efficiency of LNP formulations); type: cell-based; conditions: ratio vs compound 21
endpoint_label: RLU value, times that of compound 21
One number for each entry.

Here are 4 molecules together with their reported answers.
- structure_smiles_string: "CCCCCCCCC(CCCCCCCC)OC(=O)CCCCCN(CCO)CCN(CCO)CCCCCC(=O)OC(CCCCCCCC)CCCCCCCC"
  result: 3.71
- structure_smiles_string: "CCCCCCCCC(CCCCCCCC)OC(=O)CCCCCCCN(CCO)CCN(CCO)CCCCCCCC(=O)OC(CCCCCCCC)CCCCCCCC"
  result: 3.47
- structure_smiles_string: "CCCCCCCCC(CCCCCCCC)COC(=O)CCCCCN(CCCO)CCCN(CCCO)CCCCCC(=O)OCC(CCCCCCCC)CCCCCCCC"
  result: 4.12
- structure_smiles_string: "CCCCCCCCC(CCCCCCCC)COC(=O)CCCCCN(CCCO)CCN(CCCO)CCCCCC(=O)OCC(CCCCCCCC)CCCCCCCC"
  result: 4.26

Kindly consider the entry below.
Form: molecule = `CCCCCCCCC(CCCCCCCC)C(=O)OCCCCCCN(CCO)CCN(CCO)CCCCCCOC(=O)C(CCCCCCCC)CCCCCCCC` ; RLU value, times that of compound 21 = 3.34

* * *

tested on: 293T cells; assay: Cell survival rate assay (CCK-8); type: cell-based; settings: difference vs SM-102
Hi, to clarify the labels: 1.0 covers cell survival rate higher than SM-102 from 3% upward, 0.0 covers anything below 3%.

# count of solved cases: 3
- compound: "CCCCCCCCC(CCCCCCCC)OC(=O)CCCCCCCN(CCO)CCN(CCO)CCCCCCCC(=O)OC(CCCCCCCC)CCCCCCCC [YK-403]"
  cat: 0.0
- compound: "CCCCCCCCC(CCCCCCCC)COC(=O)CCCCCN(CCCO)CCN(CCCO)CCCCCC(=O)OCC(CCCCCCCC)CCCCCCCC [YK-422]"
  cat: 0.0
- compound: "CCCCCCCCC(CCCCCCCC)COC(=O)CCCCCN(CCCO)CCCN(CCCO)CCCCCC(=O)OCC(CCCCCCCC)CCCCCCCC [YK-423]"
  cat: 1.0

Does the compound CCCCCCCCC(CCCCCCCC)C(=O)OCCCCCCN(CCO)CCN(CCO)CCCCCCOC(=O)C(CCCCCCCC)CCCCCCCC [YK-402] have recorded cell survival rate higher than SM-102 that is 3% or more?
1.0

Does the compound CCCCCCCCCCCOC(=O)CCCN(CCO)CCN(CCO)CCCCCC(=O)OC(CCCCCCCC)CCCCCCCC [YK-407] have recorded cell survival rate higher than SM-102 that is 3% or more?
1.0
